ASSAYED TARGET: CDK19 (CDC2L6/CycC) (Homo sapiens, UniProt Q9BWU1)
Construct: purchased Carna Biosciences
Sequence (Q9BWU1 whole entry): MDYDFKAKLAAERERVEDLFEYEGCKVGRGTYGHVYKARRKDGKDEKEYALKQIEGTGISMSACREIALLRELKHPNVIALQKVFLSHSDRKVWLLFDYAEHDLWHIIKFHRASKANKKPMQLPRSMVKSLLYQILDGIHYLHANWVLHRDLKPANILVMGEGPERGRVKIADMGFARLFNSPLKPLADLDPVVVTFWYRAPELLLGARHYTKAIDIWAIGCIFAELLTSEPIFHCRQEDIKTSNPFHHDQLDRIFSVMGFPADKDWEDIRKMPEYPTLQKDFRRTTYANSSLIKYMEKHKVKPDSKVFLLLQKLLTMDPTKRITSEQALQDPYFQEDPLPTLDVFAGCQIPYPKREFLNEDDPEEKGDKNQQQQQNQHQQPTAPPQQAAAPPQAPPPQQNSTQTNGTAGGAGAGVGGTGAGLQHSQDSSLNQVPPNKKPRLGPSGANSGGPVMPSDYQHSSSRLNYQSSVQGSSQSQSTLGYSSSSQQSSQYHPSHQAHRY
Sequence (P24863 whole entry partner): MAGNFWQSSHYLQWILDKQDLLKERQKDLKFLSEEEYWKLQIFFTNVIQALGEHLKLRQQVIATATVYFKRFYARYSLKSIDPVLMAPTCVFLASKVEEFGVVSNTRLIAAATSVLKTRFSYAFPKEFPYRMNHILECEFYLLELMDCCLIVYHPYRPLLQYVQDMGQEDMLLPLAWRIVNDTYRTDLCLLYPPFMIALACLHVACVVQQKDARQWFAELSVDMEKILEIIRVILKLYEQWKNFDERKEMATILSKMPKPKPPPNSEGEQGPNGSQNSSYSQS
MEASUREMENT PROTOCOL: CDK19 inhibitory activity (TR-FRET, Kinase Tracer-236 displacement)
Type: binding
CONDITION NOTES: 1 μM of the test compound; read-out: Percent inhibition of CDK19 activity (%)
Entries and their inhibition at 1 µM
Answer with a number only, understood to be in %.

Solved cases (8 shown):
>  <QUERY SMILES>
CC(C)(F)Cc1ccc(NC(=O)/C=C/c2cnccc2-c2cnn(C3CC3)c2)cc1

>  <inhibition at 1 µM (%)>
95

$$$$
>  <QUERY SMILES>
CN1CCc2ccc(NC(=O)/C=C/c3cnccc3-c3cnn(C)c3)cc2C1

>  <inhibition at 1 µM (%)>
98

$$$$
>  <QUERY SMILES>
Cn1cc2cc(-c3ccncc3/C=C/C(=O)Nc3ccc(CN4CCOCC4)cc3)ccc2n1

>  <inhibition at 1 µM (%)>
93

$$$$
>  <QUERY SMILES>
O=C(/C=C/c1cnccc1-c1cnn(C2CC2)c1)Nc1ccc2c(c1)CCN(CC(F)(F)F)C2

>  <inhibition at 1 µM (%)>
98

$$$$
>  <QUERY SMILES>
O=C(/C=C/c1cnccc1-c1cnn(C2CC2)c1)Nc1ccc(C2CC2)cc1

>  <inhibition at 1 µM (%)>
89

$$$$
>  <QUERY SMILES>
COC1CN(Cc2ccc(NC(=O)/C=C/c3cncc(F)c3-c3cnn(C4CC4)c3)c(F)c2)C1

>  <inhibition at 1 µM (%)>
96

$$$$
>  <QUERY SMILES>
Cn1cc(-c2ccncc2/C=C/C(=O)Nc2ccc(CN3CCOCC3)c(F)c2)cn1

>  <inhibition at 1 µM (%)>
97

$$$$
>  <QUERY SMILES>
O=C(/C=C/c1cnccc1-c1cnn(CC2CC2)c1)Nc1ccc(CN2CCOCC2)cc1

>  <inhibition at 1 µM (%)>
99

$$$$

I would be grateful if you could share the reported inhibition at 1 µM for "O=C(/C=C/c1cnccc1-c1cnn(C2CC2)c1)Nc1ccc2c(c1)CN(C(=O)C(F)(F)F)CC2" .
98

What about this compound? "Cn1cc(-c2ccncc2/C=C/C(=O)Nc2ccc(CC(F)(F)F)cc2)cn1"
92

What about this compound? "Cn1cc(-c2ccc(NC(=O)/C=C/c3cnccc3-c3cnn(C4CC4)c3)cc2)cn1"
97

What about this compound? "Cn1cc(-c2ccncc2/C=C/C(=O)Nc2ccc3c(c2)CN(CC(F)(F)F)CC3)cn1"
100

What about this compound? "COC1CN(Cc2ccc(NC(=O)/C=C/c3cncc(F)c3-c3cnn(C4CC4)c3)cc2)C1"
100

What about this compound? "O=C(/C=C/c1cncc(F)c1-c1cnn(C2CC2)c1)Nc1ccc2c(c1)CN(CC(F)(F)F)C2"
100

What about this compound? "Cn1cc(-c2ccncc2/C=C/C(=O)Nc2ccc(CN3CCOCC3)c(O)c2)cn1"
99

----------
Entries and their inhibition at 1 µM
ASSAYED TARGET: CDK8/CycC (Homo sapiens, UniProt P49336)
Construct: purchased Carna Biosciences
Sequence (P49336 whole entry): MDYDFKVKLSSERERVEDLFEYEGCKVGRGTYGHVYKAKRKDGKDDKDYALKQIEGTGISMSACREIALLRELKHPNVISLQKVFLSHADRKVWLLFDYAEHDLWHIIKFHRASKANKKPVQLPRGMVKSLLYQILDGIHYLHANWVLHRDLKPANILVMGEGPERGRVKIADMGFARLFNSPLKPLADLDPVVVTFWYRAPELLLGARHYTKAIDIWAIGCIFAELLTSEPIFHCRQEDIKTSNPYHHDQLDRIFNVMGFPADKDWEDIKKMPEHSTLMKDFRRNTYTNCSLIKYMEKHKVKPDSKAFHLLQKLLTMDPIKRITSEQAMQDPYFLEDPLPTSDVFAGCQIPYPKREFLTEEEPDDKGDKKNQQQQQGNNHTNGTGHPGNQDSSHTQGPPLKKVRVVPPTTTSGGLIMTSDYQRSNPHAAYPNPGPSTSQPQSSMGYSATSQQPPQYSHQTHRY
Sequence (P24863 whole entry partner): as the sequence (P24863 whole entry partner) above
MEASUREMENT PROTOCOL: CDK8 inhibitory activity (TR-FRET, Kinase Tracer-236 displacement)
Type: binding
CONDITION NOTES: 1 μM of the test compound; read-out: Percent inhibition of CDK8 activity (%)
Answer with a number only, understood to be in %.

>  <COMPOUND>
Cn1cc(-c2ccncc2/C=C/C(=O)Nc2ccc3ncsc3c2)cn1 [Example 169]

>  <inhibition at 1 µM / %>
94

$$$$
>  <COMPOUND>
CN(C)CCc1ccc(NC(=O)/C=C/c2cnccc2-c2cnn(C)c2)cc1 [Example 226]

>  <inhibition at 1 µM / %>
98

$$$$
>  <COMPOUND>
CCn1cc(-c2ccncc2CCC(=O)Nc2ccc(CN3CCOCC3)cc2)cn1 [Example 99]

>  <inhibition at 1 µM / %>
90

$$$$

I would be grateful if you could share the reported inhibition at 1 µM for CC(C)(O)Cc1ccc(NC(=O)/C=C/c2cnccc2-c2cnn(C3CC3)c2)cc1 [Example 143] .
100

What about this compound? O=C(/C=C/c1cnccc1-c1cnn(CC2CC2)c1)Nc1ccc(CN2CCOCC2)cc1 [Example 45]
98

What about this compound? O=C(/C=C/c1cnccc1-c1cnn(CC2(F)CC2)c1)Nc1ccc(CN2CCOCC2)cc1 [Example 288]
99

What about this compound? CC(C)(O)Cc1ccc(NC(=O)/C=C/c2cncc(F)c2-c2cnn(C3CC3)c2)c(F)c1 [Example 332]
102

What about this compound? COC1CN(Cc2ccc(NC(=O)/C=C/c3cncc(F)c3-c3cnn(C4CC4)c3)c(F)c2)C1 [Example 343]
103
